Origin of measurements: patent US9546152B2

Would you kindly list Ki for each of these compounds?
# measured-on: human orexin-2 receptor (Homo sapiens (Human), UniProt O43614)
# Sequence (O43614 whole entry): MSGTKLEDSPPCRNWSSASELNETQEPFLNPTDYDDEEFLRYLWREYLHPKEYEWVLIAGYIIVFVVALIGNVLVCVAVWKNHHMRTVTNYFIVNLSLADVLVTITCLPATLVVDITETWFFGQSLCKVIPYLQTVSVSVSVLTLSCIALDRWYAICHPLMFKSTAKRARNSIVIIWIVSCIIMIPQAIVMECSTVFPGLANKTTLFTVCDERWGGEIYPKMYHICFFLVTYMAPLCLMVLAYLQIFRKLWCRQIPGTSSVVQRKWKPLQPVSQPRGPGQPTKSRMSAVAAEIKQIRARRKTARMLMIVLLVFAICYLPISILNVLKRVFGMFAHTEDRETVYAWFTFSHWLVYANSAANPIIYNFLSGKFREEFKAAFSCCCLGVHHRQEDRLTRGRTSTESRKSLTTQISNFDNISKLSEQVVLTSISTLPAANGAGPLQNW
# method-summary: radioligand binding assay, orexin-2 receptor
# measurement-conditions: membranes prepared from CHO cells expressing the OX2 receptor; read-out: hOX2R BIND hKi
Just the number in nM, nothing appended.

stdin: Could you share which Ki value was measured for `COc1c(C#N)ccnc1O[C@@H]1CC[C@@H](C)N(C(=O)c2ccc(C)cc2-n2nccn2)C1` ?
stdout: 0.4

stdin: Could you share which Ki value was measured for `Cc1c(C#N)ccnc1O[C@@H]1CC[C@@H](C)N(C(=O)c2ccccc2-c2cscn2)C1` ?
stdout: 0.2

stdin: Could you share which Ki value was measured for `Cc1nc(C(=O)N2C[C@H](Oc3nccc(C#N)c3C)CC[C@H]2C)c(-c2ccc(F)cc2)s1` ?
stdout: 4.6

stdin: Could you share which Ki value was measured for `Cc1c(C#N)ccnc1O[C@@H]1CC[C@@H](C)N(C(=O)c2ccccc2C2CC2)C1` ?
stdout: 0.7
